Assay: Inhibition of IL-2 stimulated IFN-gamma production in BALB/c mouse at 40 mg/kg, po pretreated for 30 mins followed by IL-2 stimulation and measured after 4 hrs by ELISA
Format: functional
Conditions: time 4.5 hrs
READOUT_NAME: inhibition in vivo at 40 mg/kg (%)
Give bare numbers, in %.

COc1cc(Nc2ncc(C)c(Nc3ccc4oc(=O)[nH]c4c3)n2)cc(C)c1C :: 90
COc1ccc(Nc2ncc(C)c(Nc3ccc4oc(=O)[nH]c4c3)n2)cc1C(F)(F)F :: 32
COc1cc(Nc2ncc(C)c(Nc3ccc4oc(=O)[nH]c4c3)n2)cc(C)c1F :: 92

Quick one: give me inhibition in vivo at 40 mg/kg for each item below, same order please.
1. Cc1cnc(Nc2ccc(N3CCN(C)CC3)nc2)nc1Nc1ccc2oc(=O)[nH]c2c1
2. Cc1cnc(Nc2ccc(NS(C)(=O)=O)cc2)nc1Nc1ccc2oc(=O)[nH]c2c1

Result:
1. 82
2. 8

Please give inhibition in vivo at 40 mg/kg for each item listed below.
1. COc1cc(C)cc(Nc2ncc(C)c(Nc3ccc4oc(=O)[nH]c4c3)n2)c1
2. Cc1cnc(Nc2cccc(S(C)(=O)=O)c2)nc1Nc1ccc2oc(=O)[nH]c2c1
3. COc1cc(Nc2ncc(C)c(Nc3ccc4oc(=O)[nH]c4c3)n2)cc(OC)c1OC
4. COc1cc(Nc2ncc(C)c(Nc3ccc4oc(=O)[nH]c4c3)n2)cc(C(F)(F)F)c1

Result:
1: 91; 2: 56; 3: 88; 4: 90

Where do the numbers come from? From ChEMBL document CHEMBL5113550.
